target: CD47-Fc (Homo sapiens (Human)) (UniProt Q08722); assay: phage ELISA, target-Fc against non-specific control (IgG1-Fc)
Sequence (Q08722 19-139 limits assumed): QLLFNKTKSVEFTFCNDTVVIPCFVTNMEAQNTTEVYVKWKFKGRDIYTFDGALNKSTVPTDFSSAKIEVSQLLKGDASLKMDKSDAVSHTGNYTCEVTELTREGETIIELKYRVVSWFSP
Here, each record is paired with measured ELISA ratio (target to background) data.
Give the figure by itself; no unit, no explanation.

Query block: Consider the binder DBDpp of SEQ ID NO: 23 (designed binder) MGSWTEFVGRLAAIEFRLWALGGSEAELAWFEAHIAFFEDYLQWYKGKGNPEVEALREEAGAIMEELKAYRHN and give its measured ELISA ratio (target to background).
Result block: 8.23

---
Query block: Consider the binder DBDpp of SEQ ID NO: 21 (designed binder) MGSWTEFTYRLSAIEWRLWALGGSEAELAWFEQKIAFFEDFLQYYKGKGNPEVEALKHEAGAILNELMAYRHN and give its measured ELISA ratio (target to background).
Result block: 12.5

Query block: Consider the binder DBDpp of SEQ ID NO: 20 (designed binder) MGSWYEFDLRLHAIYDRLVALGGSEAELAAFEKEIAAFESELQAYKGKGNPEVEILRDNAAYIRQMLQAYRHN and give its measured ELISA ratio (target to background).
Result block: 14.1

Query block: Consider the binder DBDpp of SEQ ID NO: 24 (designed binder) MGSWTEFYSRLEAIWVRLQALGGSEAELAMFEDRIAHFEWFLQQYKGKGNPEVEALHEEAIAIRKELAAYRHN and give its measured ELISA ratio (target to background).
Result block: 4.58

Query block: Consider the binder DBDpp of SEQ ID NO: 22 (designed binder) MGSWAEFDHRLHAIRERLHALGGSEAELAAFEKEIAAFESELQAYKGKGNPEVEILRGNAAYIRALLQAYRHN and give its measured ELISA ratio (target to background).
Result block: 11.7
